ASSAY SYSTEM: Bub1 (Homo sapiens)
Construct: catalytic domain of human Bub1 (amino acids 704-1085); His6 (N); made in house; host or cells: Hi5 insect cells
MEASUREMENT NOTES: Bub1 TR-FRET high ATP kinase assay
Type: biochemical
CONDITION LABEL: Bub1 high ATP (2 mM) IC50 [mol/l], 2 mM ATP
pIC50: −log10 of the molar value.

- COMPOUND: "Cc1c(Cl)cccc1Nc1c(-c2ccncc2OCC2COC(C)(C)CO2)[nH]c2c1C(=O)NCC2 (single isomer, unassigned) [Example 46]"
  ASSAY SYSTEM: "Bub1 (Homo sapiens)"
  COMPARISON SYMBOL: "="
  pIC50: 4.89
- COMPOUND: "COc1c(F)cccc1Nc1c(-c2ccncc2OCCC2COCCO2)[nH]c2c1C(=O)NCC2 (single isomer, unassigned) [Example 36]"
  ASSAY SYSTEM: "Bub1 (Homo sapiens)"
  COMPARISON SYMBOL: "="
  pIC50: 5.55
- COMPOUND: "O=C1NCCc2[nH]c(-c3ccncc3OCC3COCCO3)c(Nc3cccc(Cl)c3Cl)c21 (single isomer, unassigned) [Example 8]"
  ASSAY SYSTEM: "Bub1 (Homo sapiens)"
  COMPARISON SYMBOL: "="
  pIC50: 5.10
- COMPOUND: "COc1c(Cl)cccc1Nc1c(-c2ccncc2OCC2COC(C)(C)CO2)[nH]c2c1C(=O)NCC2 (centres unmarked)"
  ASSAY SYSTEM: "Bub1 (Homo sapiens)"
  COMPARISON SYMBOL: "<"
  pIC50: 4.70
- COMPOUND: "COc1c(Cl)cc(F)cc1Nc1c(-c2ccncc2OC[C@@H]2CN(C)CCO2)[nH]c2c1C(=O)NCC2"
  ASSAY SYSTEM: "Bub1 (Homo sapiens)"
  COMPARISON SYMBOL: "<"
  pIC50: 4.70
- COMPOUND: "COc1c(Cl)cccc1Nc1c(-c2ccncc2OC[C@H]2COCCN2C)[nH]c2c1C(=O)NCC2"
  ASSAY SYSTEM: "Bub1 (Homo sapiens)"
  COMPARISON SYMBOL: "="
  pIC50: 5.36
- COMPOUND: "Cc1c(F)cccc1Nc1c(-c2ccncc2OCC2COCCO2)[nH]c2c1C(=O)NCC2 (centres unmarked) [Example 47]"
  ASSAY SYSTEM: "Bub1 (Homo sapiens)"
  COMPARISON SYMBOL: "="
  pIC50: 5.30
- COMPOUND: "Cc1c(F)cccc1Nc1c(-c2ccncc2OCC2CN(C)CCO2)[nH]c2c1C(=O)NCC2 (single isomer, unassigned) [Example 63]"
  ASSAY SYSTEM: "Bub1 (Homo sapiens)"
  COMPARISON SYMBOL: "<"
  pIC50: 4.70
- COMPOUND: "CN1CCO[C@H](COc2cnccc2-c2[nH]c3c(c2Nc2cccc(F)c2CC(F)F)C(=O)NCC3)C1"
  ASSAY SYSTEM: "Bub1 (Homo sapiens)"
  COMPARISON SYMBOL: "<"
  pIC50: 4.70
- COMPOUND: "Cc1c(Cl)cccc1Nc1c(-c2ccncc2OCC2COC(C)(C)CO2)[nH]c2c1C(=O)NCC2 (single isomer, unassigned) [Example 45]"
  ASSAY SYSTEM: "Bub1 (Homo sapiens)"
  COMPARISON SYMBOL: "<"
  pIC50: 5.24
- COMPOUND: "COc1c(Cl)cccc1Nc1c(-c2ccncc2OC(C)C2CN(C)CCO2)[nH]c2c1C(=O)NCC2 (centres unmarked) [Example 71]"
  ASSAY SYSTEM: "Bub1 (Homo sapiens)"
  COMPARISON SYMBOL: "<"
  pIC50: 4.70
- COMPOUND: "COc1c(Cl)cccc1Nc1c(-c2ccncc2OC[C@@H]2COCCN2C)[nH]c2c1C(=O)NCC2"
  ASSAY SYSTEM: "Bub1 (Homo sapiens)"
  COMPARISON SYMBOL: "="
  pIC50: 5.42
- COMPOUND: "COc1c(F)cccc1Nc1c(-c2ccncc2OCC2COC(C)(C)CO2)[nH]c2c1C(=O)NCC2 (single isomer, unassigned)"
  ASSAY SYSTEM: "Bub1 (Homo sapiens)"
  COMPARISON SYMBOL: "<"
  pIC50: 4.70
- COMPOUND: "COc1c(Cl)cccc1Nc1c(-c2ccncc2O[C@@H](C)C2COCCO2)[nH]c2c1C(=O)NCC2 (mixture of isomers) [Example 57]"
  ASSAY SYSTEM: "Bub1 (Homo sapiens)"
  COMPARISON SYMBOL: "="
  pIC50: 4.85

----------
ASSAY SYSTEM: Ba/F3-EGFR-WT cells (Homo sapiens)
Sequence (P00533 whole entry, change not shown): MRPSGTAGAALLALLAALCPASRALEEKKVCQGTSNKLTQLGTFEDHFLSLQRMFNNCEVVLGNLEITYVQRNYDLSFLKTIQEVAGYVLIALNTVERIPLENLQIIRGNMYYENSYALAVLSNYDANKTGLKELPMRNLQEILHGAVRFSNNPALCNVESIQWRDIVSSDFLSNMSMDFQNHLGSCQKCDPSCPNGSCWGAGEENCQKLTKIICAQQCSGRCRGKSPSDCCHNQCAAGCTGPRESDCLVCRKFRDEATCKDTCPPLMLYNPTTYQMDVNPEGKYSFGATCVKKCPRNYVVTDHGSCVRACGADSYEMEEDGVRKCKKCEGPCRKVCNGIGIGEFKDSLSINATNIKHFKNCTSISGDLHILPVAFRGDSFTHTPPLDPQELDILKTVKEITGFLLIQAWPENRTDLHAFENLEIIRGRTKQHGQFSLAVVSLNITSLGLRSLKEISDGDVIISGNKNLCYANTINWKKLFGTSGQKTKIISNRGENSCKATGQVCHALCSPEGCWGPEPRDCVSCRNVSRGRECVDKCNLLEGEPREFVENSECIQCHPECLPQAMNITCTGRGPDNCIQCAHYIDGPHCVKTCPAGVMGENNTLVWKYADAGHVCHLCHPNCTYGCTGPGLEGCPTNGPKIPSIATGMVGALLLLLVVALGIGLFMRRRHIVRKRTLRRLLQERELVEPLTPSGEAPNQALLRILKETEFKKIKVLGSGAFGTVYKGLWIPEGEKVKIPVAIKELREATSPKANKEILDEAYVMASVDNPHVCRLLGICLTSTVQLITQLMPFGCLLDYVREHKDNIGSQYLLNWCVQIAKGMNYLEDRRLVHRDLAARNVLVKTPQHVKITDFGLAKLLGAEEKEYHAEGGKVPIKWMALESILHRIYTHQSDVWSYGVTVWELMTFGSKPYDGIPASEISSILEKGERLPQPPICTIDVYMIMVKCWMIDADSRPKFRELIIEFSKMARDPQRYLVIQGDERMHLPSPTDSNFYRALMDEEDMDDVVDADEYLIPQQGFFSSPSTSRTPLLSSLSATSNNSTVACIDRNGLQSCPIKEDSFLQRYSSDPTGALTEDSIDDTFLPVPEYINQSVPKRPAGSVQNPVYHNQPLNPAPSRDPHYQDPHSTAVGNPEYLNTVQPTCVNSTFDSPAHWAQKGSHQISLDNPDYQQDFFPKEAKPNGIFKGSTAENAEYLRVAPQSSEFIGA
MEASUREMENT NOTES: Ba/F3 cell survival assay (Cell Titer-Glo), WT EGFR
Assay type: cell-based
CONDITION LABEL: without IL-3, with 10 ng/mL EGF, 48 h; read-out: BA/F3 (wild type) IC50
Quick reference: GI50 of the listed items.

- COMPOUND: "CCc1c(F)cccc1Nc1c(-c2ccncc2OCC2COCCO2)[nH]c2c1C(=O)NCC2 (single isomer, unassigned) [Example 67]"
  ASSAY SYSTEM: "Ba/F3-EGFR-WT cells (Homo sapiens)"
  UNIT ABBREVIATION: "nM"
  GI50: 198
- COMPOUND: "COc1c(F)cccc1Nc1c(-c2ccncc2OCC2COC(C)(C)CO2)[nH]c2c1C(=O)NCC2 (single isomer, unassigned) [Example 33]"
  ASSAY SYSTEM: "Ba/F3-EGFR-WT cells (Homo sapiens)"
  UNIT ABBREVIATION: "nM"
  GI50: 557
- COMPOUND: "COc1c(Cl)cc(F)cc1Nc1c(-c2ccncc2OCC2COCCO2)[nH]c2c1C(=O)NCC2 (stereo not shown)"
  ASSAY SYSTEM: "Ba/F3-EGFR-WT cells (Homo sapiens)"
  UNIT ABBREVIATION: "nM"
  GI50: 532
- COMPOUND: "Cc1c(Cl)cccc1Nc1c(-c2ccncc2OC[C@@H]2CN(C)CCO2)[nH]c2c1C(=O)NCC2"
  ASSAY SYSTEM: "Ba/F3-EGFR-WT cells (Homo sapiens)"
  UNIT ABBREVIATION: "nM"
  GI50: 596

----------
ASSAY SYSTEM: Bub1 (Homo sapiens, UniProt O43683)
Construct: catalytic domain of human Bub1 (amino acids 704-1085); His6 (N); made in house; host or cells: Hi5 insect cells
Sequence (O43683 704-1085): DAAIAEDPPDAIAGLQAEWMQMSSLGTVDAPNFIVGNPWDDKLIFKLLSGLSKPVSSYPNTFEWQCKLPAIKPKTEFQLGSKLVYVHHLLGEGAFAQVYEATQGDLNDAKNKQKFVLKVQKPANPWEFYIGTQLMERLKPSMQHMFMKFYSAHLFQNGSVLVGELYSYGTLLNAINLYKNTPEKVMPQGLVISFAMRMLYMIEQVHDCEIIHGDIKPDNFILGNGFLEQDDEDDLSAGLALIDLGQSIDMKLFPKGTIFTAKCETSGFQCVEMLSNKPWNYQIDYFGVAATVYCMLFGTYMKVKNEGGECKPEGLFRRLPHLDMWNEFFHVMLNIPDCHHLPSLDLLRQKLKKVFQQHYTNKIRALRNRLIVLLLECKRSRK
MEASUREMENT NOTES: Bub1 TR-FRET high ATP kinase assay
Format: biochemical
CONDITION LABEL: Bub1 high ATP (2 mM) IC50 [mol/l], 2 mM ATP
ENDPOINT LABEL: IC50 (µM)

- COMPOUND: "COc1c(F)cccc1Nc1c(-c2ccncc2OCC2COCCO2)[nH]c2c1C(=O)NCC2 (stereo not drawn) [Example 4]"
  COMPARISON SYMBOL: "="
  REPORTED RESULT: 11.3
- COMPOUND: "CCc1c(Cl)cccc1Nc1c(-c2ccncc2OC[C@@H]2COCCO2)[nH]c2c1C(=O)NCC2 (single isomer, unassigned) [Example 53]"
  COMPARISON SYMBOL: "="
  REPORTED RESULT: 1.36
- COMPOUND: "Cc1c(F)cccc1Nc1c(-c2ccncc2OCC2CN(C)CCO2)[nH]c2c1C(=O)NCC2 (stereo not drawn) [Example 62]"
  COMPARISON SYMBOL: ">"
  REPORTED RESULT: 20
- COMPOUND: "COc1c(Cl)cccc1Nc1c(-c2ccncc2O[C@@H](C)C2COCCO2)[nH]c2c1C(=O)NCC2 (single isomer, unassigned) [Example 59]"
  COMPARISON SYMBOL: "="
  REPORTED RESULT: 12.2
- COMPOUND: "CCc1c(Cl)cccc1Nc1c(-c2ccncc2OC[C@H]2CN(C)CCO2)[nH]c2c1C(=O)NCC2 [Example 55]"
  COMPARISON SYMBOL: "="
  REPORTED RESULT: 7.59
- COMPOUND: "COc1c(Cl)cccc1Nc1c(-c2ccncc2OC(C)C2CN(C)CCO2)[nH]c2c1C(=O)NCC2 (single isomer, unassigned) [Example 72]"
  COMPARISON SYMBOL: ">"
  REPORTED RESULT: 20
- COMPOUND: "COc1c(F)cccc1Nc1c(-c2ccncc2OCC2COCCO2)[nH]c2c1C(=O)NCC2 (single isomer, unassigned) [Example 6]"
  COMPARISON SYMBOL: "="
  REPORTED RESULT: 6.31
- COMPOUND: "O=C1NCCc2[nH]c(-c3ccncc3OCC3COCCO3)c(Nc3cccc(Cl)c3Cl)c21 (single isomer, unassigned) [Example 9]"
  COMPARISON SYMBOL: "="
  REPORTED RESULT: 4.23
- COMPOUND: "COc1c(Cl)cccc1Nc1c(-c2ccncc2OC[C@H]2COCCO2)[nH]c2c1C(=O)NCC2 (single isomer, unassigned) [Example 3]"
  COMPARISON SYMBOL: "="
  REPORTED RESULT: 3.33
- COMPOUND: "COc1c(Cl)cccc1Nc1c(-c2ccncc2OCCC2COCCO2)[nH]c2c1C(=O)NCC2 (single isomer, unassigned) [Example 25]"
  COMPARISON SYMBOL: ">"
  REPORTED RESULT: 20
- COMPOUND: "Cc1c(F)cccc1Nc1c(-c2ccncc2OCC2COCCO2)[nH]c2c1C(=O)NCC2 (single isomer, unassigned) [Example 49]"
  COMPARISON SYMBOL: "="
  REPORTED RESULT: 3.93
- COMPOUND: "Cc1c(Cl)cccc1Nc1c(-c2ccncc2OC[C@@H]2CN(C)CCO2)[nH]c2c1C(=O)NCC2 [Example 42]"
  COMPARISON SYMBOL: ">"
  REPORTED RESULT: 20
- COMPOUND: "CCc1c(F)cccc1Nc1c(-c2ccncc2OCC2COCCO2)[nH]c2c1C(=O)NCC2 (single isomer, unassigned) [Example 67]"
  COMPARISON SYMBOL: "="
  REPORTED RESULT: 2.08
- COMPOUND: "Cc1c(Cl)cccc1Nc1c(-c2ccncc2OC[C@H]2COCCO2)[nH]c2c1C(=O)NCC2 (single isomer, unassigned) [Example 50]"
  COMPARISON SYMBOL: "="
  REPORTED RESULT: 3.54
- COMPOUND: "CCc1c(Cl)cccc1Nc1c(-c2ccncc2OCC2COCCO2)[nH]c2c1C(=O)NCC2 (stereo not drawn) [Example 52]"
  COMPARISON SYMBOL: "="
  REPORTED RESULT: 0.729
- COMPOUND: "COc1c(F)cccc1Nc1c(-c2ccncc2OC[C@@H]2CN(CC(F)(F)F)CCO2)[nH]c2c1C(=O)NCC2 [Example 23]"
  COMPARISON SYMBOL: ">"
  REPORTED RESULT: 20
- COMPOUND: "O=C1NCCc2[nH]c(-c3ccncc3OCC3COCCO3)c(Nc3cccc(Cl)c3Cl)c21 (stereo not drawn) [Example 7]"
  COMPARISON SYMBOL: "="
  REPORTED RESULT: 10.6
- COMPOUND: "COc1c(F)cccc1Nc1c(-c2ccncc2OCC2CN(C)CCO2)[nH]c2c1C(=O)NCC2 (stereo not drawn) [Example 12]"
  COMPARISON SYMBOL: ">"
  REPORTED RESULT: 20
- COMPOUND: "Cc1c(Cl)cccc1Nc1c(-c2ccncc2OC[C@H]2COCCN2C)[nH]c2c1C(=O)NCC2 [Example 43]"
  COMPARISON SYMBOL: "="
  REPORTED RESULT: 2.41
- COMPOUND: "COc1c(Cl)cc(F)cc1Nc1c(-c2ccncc2OCC2COCCO2)[nH]c2c1C(=O)NCC2 (stereo not drawn) [Example 19]"
  COMPARISON SYMBOL: "="
  REPORTED RESULT: 11.4
- COMPOUND: "COc1c(Cl)cccc1Nc1c(-c2ccncc2OCCC2COCCO2)[nH]c2c1C(=O)NCC2 (stereo not drawn) [Example 24]"
  COMPARISON SYMBOL: "="
  REPORTED RESULT: 1.94
- COMPOUND: "COc1c(Cl)cccc1Nc1c(-c2ccncc2OCC2COCCO2)[nH]c2c1C(=O)NCC2 (stereo not drawn) [Example 1]"
  COMPARISON SYMBOL: "="
  REPORTED RESULT: 3.36
- COMPOUND: "Cc1c(F)cccc1Nc1c(-c2ccncc2OCC2COC(C)(C)CO2)[nH]c2c1C(=O)NCC2 (stereo not drawn) [Example 38]"
  COMPARISON SYMBOL: ">"
  REPORTED RESULT: 5.71
- COMPOUND: "CCc1c(Cl)cccc1Nc1c(-c2ccncc2OC[C@H]2COCCO2)[nH]c2c1C(=O)NCC2 (single isomer, unassigned) [Example 54]"
  COMPARISON SYMBOL: "="
  REPORTED RESULT: 0.994
- COMPOUND: "COc1c(F)cccc1Nc1c(-c2ccncc2OCCC2COCCO2)[nH]c2c1C(=O)NCC2 (single isomer, unassigned) [Example 35]"
  COMPARISON SYMBOL: ">"
  REPORTED RESULT: 20
- COMPOUND: "Cc1c(Cl)cccc1Nc1c(-c2ccncc2OC[C@H]2COCCO2)[nH]c2c1C(=O)NCC2 (single isomer, unassigned) [Example 51]"
  COMPARISON SYMBOL: "="
  REPORTED RESULT: 1.52
- COMPOUND: "COc1c(Cl)cccc1Nc1c(-c2ccncc2OC[C@@H]2COCCO2)[nH]c2c1C(=O)NCC2 (single isomer, unassigned) [Example 2]"
  COMPARISON SYMBOL: "="
  REPORTED RESULT: 6.04
